- study.target: T1, human IL-6 (human, UniProt P05231 30-212)
- T1 construct: also called interleukin-6
- T1 sequence (P05231 30-212 limits assumed): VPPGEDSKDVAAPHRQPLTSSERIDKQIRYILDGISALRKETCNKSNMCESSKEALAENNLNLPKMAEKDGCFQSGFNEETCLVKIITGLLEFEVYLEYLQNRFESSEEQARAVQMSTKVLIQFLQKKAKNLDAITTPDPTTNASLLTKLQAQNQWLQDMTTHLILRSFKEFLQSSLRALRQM
- assay.comment: SPR (Biacore T200), antibody from cell supernatant captured on Protein A, IL-6 flowed over, 37 C
measure: Kd (nM)
Respond with the bare value in nM.

input: // returns reported Kd for input anti-IL-6 antibody, heavy chain S35G, G66D / light chain WT (antibody, human IgG1, V domains shown, Derived as m2; Engineered human IgG1) VH: EVQLVESGGGLVQPGGSLRLSCAASGFTFSPFAMGWVRQAPGKGLEWVAKISPGGSWTYYSDTVTDRFTFSLDTSKSTAYLQMNSLRAEDTAVYYCARQLWGYYALDIWGQGTLVTVSS VL: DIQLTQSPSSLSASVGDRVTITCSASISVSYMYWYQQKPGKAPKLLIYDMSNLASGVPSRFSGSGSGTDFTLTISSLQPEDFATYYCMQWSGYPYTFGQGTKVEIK
output: 0.284

input: And for anti-IL-6 antibody, heavy chain T65A, G66D / light chain WT (antibody, human IgG1, V domains shown, Derived as m2; Engineered human IgG1) VH: EVQLVESGGGLVQPGGSLRLSCAASGFTFSPFAMSWVRQAPGKGLEWVAKISPGGSWTYYSDTVADRFTFSLDTSKSTAYLQMNSLRAEDTAVYYCARQLWGYYALDIWGQGTLVTVSS VL: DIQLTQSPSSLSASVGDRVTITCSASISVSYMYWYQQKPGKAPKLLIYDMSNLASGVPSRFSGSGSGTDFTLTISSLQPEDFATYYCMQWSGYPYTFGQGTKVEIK ?
output: 0.222
